# SYSTEM_NAME: Carbonic anhydrase 2 (Homo sapiens)
# PROTOCOL_DESCRIPTION: Inhibition of recombinant human carbonic anhydrase 2 after 15 mins by stopped flow CO2 hydration assay
Reported values of IC50 for individual entries
# number only, unit nM dropped from output

Ask: Suppose we examine the compound COc1cccc(-c2nnc(Nc3cccc(S(N)(=O)=O)c3)c3ccccc23)c1 ; what IC50 value has been reported?
Result: 61.8

// switching to the query compound
Ask: Suppose we examine the compound Cc1ccc(-c2nnc(Nc3ccc(S(N)(=O)=O)cc3)c3ccccc23)cc1S(N)(=O)=O ; what IC50 value has been reported?
Result: 547

* * *

Reported values of IC50 for individual entries
# SYSTEM_NAME: Carbonic anhydrase 2 (Homo sapiens, UniProt P00918)
# PROTOCOL_DESCRIPTION: Inhibition of recombinant human carbonic anhydrase 2 after 15 mins by stopped flow CO2 hydration assay

Ask: Tell me reported IC50 for NS(=O)(=O)c1cccc(Nc2nnc(-c3ccccc3)c3ccccc23)c1 , tested with Carbonic anhydrase 2 (Homo sapiens, UniProt P00918).
Result: > 10 µM

Ask: Same read-out for NS(=O)(=O)c1ccc(Nc2nnc(-c3cccc(S(N)(=O)=O)c3)c3ccccc23)cc1 ?
Result: 0.455 µM

Ask: Same read-out for NS(=O)(=O)c1ccc(Nc2nnc(-c3ccc(C(F)(F)F)cc3)c3ccccc23)cc1 ?
Result: > 10 µM

Ask: Same read-out for NS(=O)(=O)c1ccc(Nc2nnc(-c3ccc(Cl)cc3)c3ccccc23)cc1 ?
Result: > 10 µM

Ask: Same read-out for COc1cccc(-c2nnc(Nc3ccc(S(N)(=O)=O)cc3)c3ccccc23)c1 ?
Result: > 10 µM

Ask: Same read-out for Cc1cc(-c2nnc(Nc3ccc(S(N)(=O)=O)cc3)c3ccccc23)ccc1S(N)(=O)=O ?
Result: 0.0268 µM

Ask: Same read-out for Nc1ccc(Nc2nnc(-c3cccc(S(N)(=O)=O)c3)c3ccccc23)cc1 ?
Result: 0.147 µM

Ask: Same read-out for NS(=O)(=O)c1ccc(Nc2nnc(-c3ccccc3)c3ccccc23)cc1 ?
Result: > 10 µM

Ask: Same read-out for COc1ccc(-c2nnc(Nc3cccc(S(N)(=O)=O)c3)c3ccccc23)cc1 ?
Result: > 10 µM

// switching to the query compound
Ask: Tell me reported IC50 for CC(C)(C)c1ccc(Nc2nnc(-c3cccc(S(N)(=O)=O)c3)c3ccccc23)cc1 , tested with Carbonic anhydrase 2 (Homo sapiens, UniProt P00918).
Result: > 10 µM

* * *

Reported values of pIC50 for individual entries
# SYSTEM_NAME: Carbonic anhydrase 9 (Homo sapiens)
# PROTOCOL_DESCRIPTION: Inhibition of recombinant human carbonic anhydrase 9 after 15 mins by stopped flow CO2 hydration assay
pIC50: −log10 of the molar value.

Some compounds with recorded pIC50:
Ask: Suppose we examine the compound COc1ccc(-c2nnc(Nc3cccc(S(N)(=O)=O)c3)c3ccccc23)cc1 ; what pIC50 value has been reported?
Result: < 6.16

Ask: Same read-out for NS(=O)(=O)c1cccc(Nc2nnc(-c3ccc(Cl)cc3)c3ccccc23)c1 ?
Result: < 6.16

Ask: Same read-out for NS(=O)(=O)c1cccc(Nc2nnc(-c3ccccc3)c3ccccc23)c1 ?
Result: < 6.16

Ask: Same read-out for NS(=O)(=O)c1ccc(Nc2nnc(-c3ccc(Cl)cc3)c3ccccc23)cc1 ?
Result: < 5.41

Further cases:
Ask: Suppose we examine the compound NS(=O)(=O)c1ccc(Nc2nnc(-c3ccc(C(F)(F)F)cc3)c3ccccc23)cc1 ; what pIC50 value has been reported?
Result: < 5.41

Source listed as ChEMBL document CHEMBL2331543.
